List of melting point values.

compound | melting point
CCOc1ccc2c(c1)n(C1CCCCC1)c(=O)n2S(=O)(=O)c1ccc(N(C)C)cc1OC | 220 °C
CC(O)Cc1nc(Cl)ccc1N (stereo not given) | 118 to 121 °C
Cc1cc(O)nc2c1c(C)nn2-c1ccccn1 | 254 to 255 °C
O=c1oc(C(F)(F)F)ccc1-c1ccc(F)cc1F | 98 to 100 °C
CC(C)(C)c1ccc(C(=O)Nc2cn3cc(-c4ccccc4)ccc3n2)cc1 | 252 to 253 °C

* * *

List of melting point values.
endpoint: melting point

compound | endpoint | recorded-value
O=C(O)C(CCc1ccccc1)NC1CCc2ccccc2NC1=O (centres undefined) | melting point | 173 to 175 °C
Cc1oc(C)c2c(=O)c3c(=O)ccc(=O)c=3c(=O)c12 | melting point | > 270 °C
Cc1ccc(S(=O)c2cccc(-c3nc(=O)c4ccccc4s3)n2)cc1 (centres undefined) | melting point | 228 °C
CCc1cc(OCc2ccc(-c3ccccc3-c3nnn(C(c4ccccc4)(c4ccccc4)c4ccccc4)n3)cc2)c2c(n1)CCCCC2 | melting point | 147 to 148 °C
CN(C)CCc1c[nH]c2ccc(CC3COC(=O)N3)cc12 (centres undefined) | melting point | 138 to 140 °C
O=C(c1ccccc1)c1cc(Cl)ccc1C=CCN1C(=O)c2ccccc2C1=O | melting point | 70 to 72 °C
O=c1c2c(nc3ccc(Br)cn13)C(=Cc1ccc(Cl)cc1)CC2 | melting point | 233 to 234 °C
Cc1nc(-c2ccc(C(F)(F)F)cc2)sc1CSc1ccc(OCC(=O)O)cc1 | melting point | 190 °C
CCOC(=O)Cc1c(-c2ccc(Cl)cc2)nn2cc(Cl)cnc12 | melting point | 139 to 140 °C
